Listed here: items and their measured protein stability index.
B1: POMT2 (parent)
chain: VLRSRIRFIHLVTGCVLGSSGKVL

Variants of: B1
Measurement notes: protein stability index of a GFP-peptide fusion (GPS, HEK-293T) (PSI 1-6); higher = more stable;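 further: lentivirally expressed fusions sorted by FACS into six bins by GFP to DsRed ratio, PSI derived from sequencing read proportions per bin multiplied by bin number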
Experimental parameters: c terminus: a fixed tail appended

- Alteration: "V1P"
  protein stability index: 3.01
- Alteration: "S4H"
  protein stability index: 2.09
- Alteration: "L11P"
  protein stability index: 2.4
- Alteration: "I6F"
  protein stability index: 3.11
- Alteration: "H10M"
  protein stability index: 1.99
- Alteration: "S20R"
  protein stability index: 2.82
- Alteration: "S20C"
  protein stability index: 3.22
- Alteration: "R5D"
  protein stability index: 2.67
- Alteration: "G14V"
  protein stability index: 4.81
- Alteration: "V16C"
  protein stability index: 2.73
- Alteration: "I6K"
  protein stability index: 2.08
- Alteration: "R5V"
  protein stability index: 2.4
- Alteration: "G21R"
  protein stability index: 2.47
- Alteration: "V12F"
  protein stability index: 3.19
- Alteration: "F8R"
  protein stability index: 2.11
- Alteration: "L24Y"
  protein stability index: 2.18
- Alteration: "G18S"
  protein stability index: 3.06
- Alteration: "G18C"
  protein stability index: 2.32
- Alteration: "S19N"
  protein stability index: 2.73
- Alteration: "V16K"
  protein stability index: 3.78
- Alteration: "F8A"
  protein stability index: 1.04
- Alteration: "S19D"
  protein stability index: 3.66
- Alteration: "V12N"
  protein stability index: 3.83
- Alteration: "F8C"
  protein stability index: 3.6
- Alteration: "V16H"
  protein stability index: 3.17
- Alteration: "R7N"
  protein stability index: 2.44
- Alteration: "L2F"
  protein stability index: 2.75
- Alteration: "G18T"
  protein stability index: 2.14
- Alteration: "V1W"
  protein stability index: 1.4
- Alteration: "S19A"
  protein stability index: 1.93
